molecular target: T1, human MSLN-FL-his protein (human, UniProt Q13421 296-580); test: ELISA on coated antigen, antibody 100 nM
T1 construct: Made in HEK293E cells, purified on nickel column; it is put last here; also called human MSLN full-length protein; hMSLN-FL-his; not shown: His tag
T1 sequence (Q13421 other isoform, or with tags, fused parts or gaps): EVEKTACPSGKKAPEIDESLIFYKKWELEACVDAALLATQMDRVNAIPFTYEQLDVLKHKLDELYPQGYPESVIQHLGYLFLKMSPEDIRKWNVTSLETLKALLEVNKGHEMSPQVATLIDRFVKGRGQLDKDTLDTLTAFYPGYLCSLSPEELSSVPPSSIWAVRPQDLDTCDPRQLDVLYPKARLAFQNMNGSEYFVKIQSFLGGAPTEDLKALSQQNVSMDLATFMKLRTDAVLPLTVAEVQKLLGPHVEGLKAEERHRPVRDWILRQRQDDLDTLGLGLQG
Please go through the items and note down their OD450.
Express your answer in OD, writing the number without its unit.

INPUT: Returns the measured OD450 for the input binder. Input: S009-F8-5.15 (antibody, human IgG1, kappa, V domains shown, Human-murine chimeric antibody, human IgG1 heavy and kappa light constant regions) VH: QVQLQQPGTELVKPGASVKLSCKASGYTFTSYWMHWVKQRPGQGLEWIGHSNPSNGGTNYNEKFKSKATLTVDKSSSTAYMQLSSLTSEDSAVYYCARWVRGSNYEYFDVWGTGTTVTVSS VL: DIVMTQSQKFMSTTVGDRVSIICKASQNVGSAVAWCQQKPGQSPKLLIYSASNRYTGVPDRFTGSGSGTDFTLTISNMQSEDLADYFCQQYSSYPLTFAGGTKLEIKR
OUTPUT: 3.16

INPUT: Which OD450 value is on record for S009-F8-31.22 (antibody, human IgG1, kappa, V domains shown, Human-murine chimeric antibody, human IgG1 heavy and kappa light constant regions) VH: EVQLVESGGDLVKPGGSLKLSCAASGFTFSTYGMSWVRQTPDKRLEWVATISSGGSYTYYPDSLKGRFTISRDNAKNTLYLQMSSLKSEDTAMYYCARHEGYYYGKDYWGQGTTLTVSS VL: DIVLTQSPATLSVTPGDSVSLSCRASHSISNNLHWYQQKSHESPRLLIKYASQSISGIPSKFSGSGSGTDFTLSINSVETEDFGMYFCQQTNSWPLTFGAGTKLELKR ?
OUTPUT: 2.66

INPUT: Quick check: OD450 of S009-F8-22.23 (antibody, human IgG1, kappa, V domains shown, Human-murine chimeric antibody, human IgG1 heavy and kappa light constant regions) VH: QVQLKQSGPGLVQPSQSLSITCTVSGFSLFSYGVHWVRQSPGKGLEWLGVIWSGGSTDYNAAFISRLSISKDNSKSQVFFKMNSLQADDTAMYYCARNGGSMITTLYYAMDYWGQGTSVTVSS VL: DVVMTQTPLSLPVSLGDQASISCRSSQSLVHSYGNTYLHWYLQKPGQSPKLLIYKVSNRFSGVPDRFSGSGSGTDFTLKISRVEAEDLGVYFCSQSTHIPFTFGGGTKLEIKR ?
OUTPUT: 2.9
